Test: chemical genetic growth profiling, strain panel (AID 1159580);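 note: tested at 20 µM; growth read once vehicle control cultures reached saturation at 30 °C; lower values mean less growth of the strain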
Conditions: S. cerevisiae deletion strains, growth OD, locus YHR129C, strain ARP1
Hit rate of the full screen: of about 5,500 compounds, about 2,000 (36%) were called active. Not shown: some 18% with an inconclusive outcome. Cut-off read from the data, not from the text of the source: active = normalized growth mostly below about 0.91 (no sharp cut-off); inconclusive = no clear call, values can overlap the other calls; inactive = mostly above about 0.92. This is one part of the list.
Parameter call: string, one of true = active, false = inactive

- O=C1CN(/N=C\c2ccc([N+](=O)[O-])o2)C(=O)N1: false
- COc1cc(/C=C/C(=O)O)ccc1O: false
- CC(Cc1ccc(O)c(O)c1)(NN)C(=O)O (centres undefined): false
- O=C(O)CCCCCCCCCCCCC1C=CCC1 (centres undefined): true

So what was the verdict on CCOP(=S)(OCC)Oc1ccc2c(C)c(Cl)c(=O)oc2c1 in this test?
false

So what was the verdict on CN(Cc1cc(Br)cc(Br)c1N)C1CCCCC1 in this test?
false

So what was the verdict on CC1=C(/C=C/C(C)=C/C=C/C(C)=C/C(=O)O)C(C)(C)CCC1 in this test?
false

So what was the verdict on CC[C@]12CCCN3CCc4c(n(c5ccccc45)[C@](O)(C(=O)OC)C1)[C@@H]32 in this test?
false

So what was the verdict on NC(=O)N/N=C\c1ccc([N+](=O)[O-])o1 in this test?
false
